tgt: UniProtKB P10635
Sequence (P10635 whole entry): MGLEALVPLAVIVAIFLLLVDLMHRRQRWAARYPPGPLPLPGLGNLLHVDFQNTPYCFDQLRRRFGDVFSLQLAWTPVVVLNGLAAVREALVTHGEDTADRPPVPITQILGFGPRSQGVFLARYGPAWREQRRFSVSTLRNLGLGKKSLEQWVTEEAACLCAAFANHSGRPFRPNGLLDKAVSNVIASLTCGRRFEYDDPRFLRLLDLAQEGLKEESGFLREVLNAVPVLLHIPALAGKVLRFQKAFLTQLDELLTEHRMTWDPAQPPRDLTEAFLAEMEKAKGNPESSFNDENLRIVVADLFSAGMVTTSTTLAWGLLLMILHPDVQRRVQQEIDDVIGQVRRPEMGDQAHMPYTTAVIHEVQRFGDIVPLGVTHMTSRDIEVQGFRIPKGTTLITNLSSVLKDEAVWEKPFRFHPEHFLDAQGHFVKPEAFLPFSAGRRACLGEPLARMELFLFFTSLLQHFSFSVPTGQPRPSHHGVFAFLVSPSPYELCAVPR
pIC50: −log10 of the molar value.
quantity_measured: pIC50

Lookup: I have this molecule here, COc1c(OCCCCCCC(=O)O)cc2oc3cc4c(c(O)c3c(=O)c2c1CC=C(C)C)C=CC(C)(C)O4 , and I need its recorded pIC50.
Found: < 5.00

----------
tgt: UniProt:Q07343
Sequence (Q07343 whole entry, the tested form may be a part): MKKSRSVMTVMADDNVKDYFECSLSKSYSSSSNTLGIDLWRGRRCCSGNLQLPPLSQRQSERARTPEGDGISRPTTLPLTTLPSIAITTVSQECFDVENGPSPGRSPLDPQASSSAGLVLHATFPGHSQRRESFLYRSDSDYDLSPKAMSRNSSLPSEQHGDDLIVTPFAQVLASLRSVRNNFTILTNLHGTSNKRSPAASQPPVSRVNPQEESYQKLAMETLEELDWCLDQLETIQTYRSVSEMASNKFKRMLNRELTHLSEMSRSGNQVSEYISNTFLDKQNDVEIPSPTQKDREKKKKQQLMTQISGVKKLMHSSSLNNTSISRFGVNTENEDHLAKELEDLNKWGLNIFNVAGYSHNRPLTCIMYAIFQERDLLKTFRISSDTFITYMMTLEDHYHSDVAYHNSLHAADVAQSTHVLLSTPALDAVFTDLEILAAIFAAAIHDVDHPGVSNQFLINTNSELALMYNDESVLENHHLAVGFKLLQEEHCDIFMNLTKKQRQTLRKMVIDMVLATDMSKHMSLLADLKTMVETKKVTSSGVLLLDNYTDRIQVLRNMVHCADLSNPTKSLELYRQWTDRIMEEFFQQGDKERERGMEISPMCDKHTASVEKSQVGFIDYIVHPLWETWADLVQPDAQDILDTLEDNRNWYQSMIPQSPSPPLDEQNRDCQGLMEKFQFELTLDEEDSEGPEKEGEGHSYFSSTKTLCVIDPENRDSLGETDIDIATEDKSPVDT
assay_comment: Inhibition of human PDE4B2 (152 to 487 residues) expressed in Escherichia coli BL21 codon-plus cells using [3H]cAMP as substrate incubated for 15 mins by liquid scintillation counting method
quantity_measured: pIC50
In simple prose, pIC50 is minus the logarithm base ten of a concentration in moles per litre.

Lookup: I have this compound here, COc1c(OCCCCCCC(=O)O)cc2oc3cc4c(c(O)c3c(=O)c2c1CC=C(C)C)C=CC(C)(C)O4 , and I need its recorded pIC50.
Found: 8.00
